Target: full-length NS3/NS4A-2 (HCV NS3 protease) (Hepatitis C virus genotype 1a, UniProt P27958)
Construct: Recombinant E. coli or Baculovirus full-length NS3 was diluted to 3.33 μM with assay buffer; made in house; host or cells: E. coli or baculovirus (BV) expression system
Sequence (P27958 1027-1657): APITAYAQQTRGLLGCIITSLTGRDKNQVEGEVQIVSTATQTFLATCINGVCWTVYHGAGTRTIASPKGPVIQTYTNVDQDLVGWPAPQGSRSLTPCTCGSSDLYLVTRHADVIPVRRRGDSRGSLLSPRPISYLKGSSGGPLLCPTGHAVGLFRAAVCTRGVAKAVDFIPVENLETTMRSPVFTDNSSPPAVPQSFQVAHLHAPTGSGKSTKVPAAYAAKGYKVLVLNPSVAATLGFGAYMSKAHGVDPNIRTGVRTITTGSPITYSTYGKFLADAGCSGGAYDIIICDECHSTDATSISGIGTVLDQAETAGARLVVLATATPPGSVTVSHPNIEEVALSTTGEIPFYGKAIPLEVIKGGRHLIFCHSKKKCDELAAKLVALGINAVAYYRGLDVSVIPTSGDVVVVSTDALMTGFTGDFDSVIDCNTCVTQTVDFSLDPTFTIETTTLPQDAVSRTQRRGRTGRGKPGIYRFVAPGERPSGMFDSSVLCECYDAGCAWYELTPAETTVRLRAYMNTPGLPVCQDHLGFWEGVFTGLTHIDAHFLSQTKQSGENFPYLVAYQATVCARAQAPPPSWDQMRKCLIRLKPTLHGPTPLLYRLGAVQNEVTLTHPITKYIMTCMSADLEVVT
Test: NS3-NS4 protease assay / NS3 inhibition assay (RETS1 substrate, fluorescence kinetic read)
Format: biochemical
Conditions: recombinant E. coli or Baculovirus full-length NS3 with NS4A-2; read-out: NS3-NS4 IC50
pIC50: −log10 of the molar value.
readout.kind: pIC50

Consider the reported pIC50 for these compounds:
>>> observed_result("CC(C)(C)OC(=O)N[C@H]1CCN(S(=O)(=O)c2ccccc2[N+](=O)[O-])CC/C=C\\[C@@H]2C[C@@]2(C(=O)NS(=O)(=O)C2CC2)NC(=O)[C@@H]2C[C@@H](OC(=O)N3Cc4cccc(F)c4C3)CN2C1=O [Compound 1030]")
"> 7.00"
>>> observed_result("CC(C)N(C)S(=O)(=O)NC(=O)[C@@]12C[C@H]1/C=C\\CCCCC[C@H](NC(=O)OC(C)(C)C)C(=O)N1C[C@H](OC(=O)N3Cc4ccccc4C3)C[C@H]1C(=O)N2 [Compound 201]")
"> 7.00"
>>> observed_result("O=C(N[C@H]1CCCCC/C=C\\[C@@H]2C[C@@]2(C(=O)NS(=O)(=O)C2CC2)NC(=O)[C@@H]2C[C@@H](OC(=O)N3Cc4cccc(Cl)c4C3)CN2C1=O)OC1CCCC1 [Compound 141]")
"> 7.00"

Look up pIC50 of CC(C)(C)OC(=O)N[C@H]1CCCCC/C=C\[C@@H]2C[C@@]2(C(=O)NS(=O)(=O)NCCc2cccc3ccccc23)NC(=O)[C@@H]2CCCN2C1=O [Compound 422] and report it.
< 5.00

Read the entry CC(C)(C)c1csc(N[C@H]2CCCCC/C=C\[C@@H]3C[C@@]3(C(=O)NS(=O)(=O)C3CC3)NC(=O)[C@@H]3C[C@@H](OC(=O)N4Cc5cccc(F)c5C4)CN3C2=O)n1 [Compound 925] and write its reported pIC50.
> 7.00

Using the record for CC(C)(C)OC(=O)N[C@H]1CCCCC/C=C\[C@@H]2C[C@@]2(C(=O)NS(=O)(=O)NCCc2cccnc2)NC(=O)[C@@H]2CCCN2C1=O [Compound 424] , state its measured pIC50.
< 5.00

// Input: CCOC(=O)[C@@]12C[C@H]1/C=C\CCCCC[C@H](NC(=O)OC(C)(C)C)C(=O)N1C[C@H](OC(=O)N3Cc4ccc(OCCN(C)C)cc4C3)C[C@H]1C(=O)N2 [Compound 127] . Output its pIC50 only.
> 5.00

In one line, give reported pIC50 of the entry CC(C)(C)OC(=O)N[C@H]1CCCCC/C=C\[C@@H]2C[C@@]2(C(=O)NS(=O)(=O)Cc2ccc(Cl)cc2)NC(=O)[C@@H]2CCCN2C1=O [Compound 2119] .
> 6.00

Provide one value: measured pIC50 of CN(C)S(=O)(=O)NC(=O)[C@@]12C[C@H]1/C=C\CCCCC[C@H](NC(=O)OC(C)(C)C)C(=O)N1C[C@H](OC(=O)N3Cc4cccc(Cl)c4C3)C[C@H]1C(=O)N2 [Compound 114]
> 7.00

Assign pIC50 to the following record: CC(C)(C)OC(=O)N[C@H]1CCCCC/C=C\[C@@H]2C[C@@]2(C(=O)NS(=O)(=O)NC2CCCC2)NC(=O)[C@@H]2C[C@@H](OC(=O)N3Cc4cccc(Cl)c4C3)CN2C1=O [Compound 212]
> 7.00

----------
Target: full-length NS3/NS4A-2 (HCV NS3 protease) (Hepatitis C virus genotype 1a, UniProt P27958)
Construct: Recombinant E. coli or Baculovirus full-length NS3 was diluted to 3.33 μM with assay buffer; made in house; host or cells: E. coli or baculovirus (BV) expression system
Experiment: NS3-NS4 protease assay / NS3 inhibition assay (RETS1 substrate, fluorescence kinetic read)
Format: biochemical
Details: recombinant E. coli or Baculovirus full-length NS3 with NS4A-2; read-out: NS3-NS4 IC50
Entries and their measured IC50 follow.

Example entries and their recorded answers appear below.
>>> observed_result("Cc1ccc(CN[C@H]2CCCCC/C=C\\[C@@H]3C[C@@]3(C(=O)NC#N)NC(=O)C3C[C@@H](OC(=O)N4Cc5cccc(F)c5C4)CN3C2=O)o1 (stereo partly drawn)")
"< 1000 nM"
>>> observed_result("CC(C)C(C(C)C)S(=O)(=O)NC(=O)[C@@]12C[C@H]1/C=C\\CCCCC[C@H](NC(=O)OC(C)(C)C)C(=O)N1CCC[C@H]1C(=O)N2")
"< 1000 nM"
>>> observed_result("CC(C)(C)OC(=O)N[C@H]1CCCCC/C=C\\[C@@H]2C[C@@]2(C(=O)NS(=O)(=O)c2ccc(F)cc2)NC(=O)[C@@H]2CCCN2C1=O")
"< 10000 nM"
>>> observed_result("CCCNC(=O)[C@@]12C[C@H]1/C=C\\CCCCC[C@H](NC1CCC1)C(=O)N1C[C@H](OC(=O)N3Cc4cccc(F)c4C3)C[C@H]1C(=O)N2")
"< 10000 nM"
>>> observed_result("COc1cccc(S(=O)(=O)NC(=O)[C@@]23C[C@H]2/C=C\\CCCCC[C@H](NC(=O)OC(C)(C)C)C(=O)N2CCC[C@H]2C(=O)N3)c1")
"< 10000 nM"
>>> observed_result("CC(C)(C)CN[C@H]1CCCCC/C=C\\[C@@H]2C[C@@]2(C(=O)NS(=O)(=O)C2CC2)NC(=O)[C@@H]2C[C@@H](OC(=O)N3Cc4cccc(F)c4C3)CN2C1=O")
"< 100 nM"

Provide measured IC50 value, entry: CN(C)S(=O)(=O)NC(=O)[C@@]12C[C@H]1/C=C\CCCCC[C@H](NC(=O)OC(C)(C)C)C(=O)N1C[C@H](OC(=O)N3Cc4c(Cl)ccc(Cl)c4C3)C[C@H]1C(=O)N2
< 100 nM

Input CC(C)(C)OC(=O)N[C@H]1CCCCC/C=C\[C@@H]2C[C@@]2(C(=O)NS(=O)(=O)c2c(Cl)cc(Cl)cc2Cl)NC(=O)[C@@H]2CCCN2C1=O , output reported IC50.
< 100 nM

For the compound CN(c1ccc(Cl)cc1)S(=O)(=O)NC(=O)[C@@]12C[C@H]1/C=C\CCCCC[C@H](NC(=O)OC(C)(C)C)C(=O)N1CCC[C@H]1C(=O)N2 , give its measured IC50 value.
< 10000 nM

Answer with reported IC50 of CC(C)(C)OC(=O)N[C@H]1CCCCC/C=C\[C@@H]2C[C@@]2(C(=O)NS(=O)(=O)Nc2ccc(Cl)cc2Cl)NC(=O)[C@@H]2CCCN2C1=O
> 10000 nM

Read the entry CC(C)(C)OC(=O)N[C@H]1CCCCC/C=C\[C@@H]2C[C@@]2(C(=O)NS(=O)(=O)C2CC2)NC(=O)[C@@H]2C[C@@H](OC(=O)N3CCc4cccc(Cl)c4C3)CN2C1=O and write its reported IC50.
< 100 nM

Entry C=CCNS(=O)(=O)NC(=O)[C@@]12C[C@H]1/C=C\CCCCC[C@H](NC(=O)OC(C)(C)C)C(=O)N1CCC[C@H]1C(=O)N2 needs its IC50 filled in; supply it.
< 1000 nM

Supply recorded IC50 for COc1ccc(CCNS(=O)(=O)NC(=O)[C@@]23C[C@H]2/C=C\CCCCC[C@H](NC(=O)OC(C)(C)C)C(=O)N2CCC[C@H]2C(=O)N3)cc1 here.
> 10000 nM

Return IC50 for the following compound: O=C(N[C@H]1CCCCC/C=C\[C@@H]2C[C@@]2(C(=O)NS(=O)(=O)C2CC2)NC(=O)[C@@H]2C[C@@H](OC(=O)N3Cc4ccncc4C3)CN2C1=O)OC1CCCC1
< 100 nM

Give reported IC50 value for CC(C)OC(=O)N[C@H]1CCC(F)(F)CC/C=C\[C@@H]2C[C@@]2(C(=O)NS(=O)(=O)C2CC2)NC(=O)[C@@H]2C[C@@H](OC(=O)N3Cc4ccccc4C3)CN2C1=O
< 100 nM

Tell us which IC50 value is on record for CC(C)(C)OC(=O)N[C@H]1CCCCC/C=C\[C@@H]2C[C@@]2(C(=O)NS(=O)(=O)NCc2ccccc2)NC(=O)[C@@H]2CCCN2C1=O
< 10000 nM

Give the value of IC50 reported for the following: CCN(C)S(=O)(=O)NC(=O)[C@@]12C[C@H]1/C=C\CCCCC[C@H](NC(=O)OC(C)(C)C)C(=O)N1CCC[C@H]1C(=O)N2
< 10000 nM

Entry CC(=O)N[C@H]1CCCCC/C=C\[C@@H]2C[C@@]2(C(=O)NS(=O)(=O)C2CC2)NC(=O)[C@@H]2CCCN2C1=O needs its IC50 filled in; supply it.
< 10000 nM

Answer with reported IC50 of CC(C)(C)OC(=O)N[C@H]1CCC(F)(F)CC/C=C\[C@@H]2C[C@@]2(C(=O)O)NC(=O)[C@@H]2C[C@@H](OC(=O)N3Cc4cccc(F)c4C3)CN2C1=O
< 100 nM

Return IC50 for the following compound: O=C1N[C@]2(C(=O)NS(=O)(=O)C3CC3)C[C@H]2/C=C\CCCCC[C@H](NCCCC(F)(F)F)C(=O)N2C[C@H](OC(=O)N3Cc4cccc(F)c4C3)C[C@@H]12
< 100 nM

Report measured IC50; entry is CC(C)(C)OC(=O)N[C@H]1CCC(F)(F)CC/C=C\[C@@H]2C[C@@]2(C(=O)NS(=O)(=O)C2CC2)NC(=O)[C@@H]2C[C@@H](OC(=O)N3Cc4cccc(F)c4C3)CN2C1=O
< 100 nM
